target: SARS-CoV-2 M^pro (MBP-cleaved) (Severe acute respiratory syndrome coronavirus 2); assay: Intact MS of M^pro after incubation with phytochemicals; assay type: binding; conditions: 1 µM phytochemical, 0.5 µM enzyme, 37°C 30 min
measurementType: covalent adduct on M^pro by intact MS

[
  {
    "compound": "O=c1c(O)cc([C@H]2Oc3cc(O)cc(O)c3C[C@H]2O)cc2c([C@H]3Oc4cc(O)cc(O)c4C[C@H]3O)cc(O)c(O)c12 [theaflavin]",
    "systemName": "SARS-CoV-2 M^pro (MBP-cleaved) (Severe acute respiratory syndrome coronavirus 2)",
    "measuredValue": "One or two molecule(s)"
  },
  {
    "compound": "Oc1cc(O)cc(/C=C/c2ccc(O)c(O)c2)c1 [piceatannol]",
    "systemName": "SARS-CoV-2 M^pro (MBP-cleaved) (Severe acute respiratory syndrome coronavirus 2)",
    "measuredValue": "One or two molecule(s)"
  },
  {
    "compound": "O=c1c(O)c(-c2cc(O)c(O)c(O)c2)oc2cc(O)cc(O)c12 [myricetin]",
    "systemName": "SARS-CoV-2 M^pro (MBP-cleaved) (Severe acute respiratory syndrome coronavirus 2)",
    "measuredValue": "One or two molecule(s)"
  }
]

Recorded values, source paper PMC8498006.
